Experimental protocol: Chemical stability of the compound in sirtuin assay buffer at pH 8.0 assessed as nicotinamide cleavage measured every 30 mins for 4 hrs by HPLC analysis
Assay type: physicochemical
Assay context: read-out: Activity
Property: degraded at 4 h (%)
Numbers only; they are read as %.

Exam item: Given the compound `NC(=O)c1ccc[n+]([C@@H]2O[C@H](COP(=O)(O)OP(=O)(O)OC[C@H]3O[C@@H](n4cnc5c(N)ncnc54)[C@H](O)[C@@H]3O)[C@@H](O)[C@H]2N)c1` , what is its reported degraded at 4 h?
Marked response: 8.4

====

Measured target: NAD-dependent protein deacetylase sirtuin-2 (Homo sapiens, UniProt Q8IXJ6)
Sequence (Q8IXJ6 whole entry): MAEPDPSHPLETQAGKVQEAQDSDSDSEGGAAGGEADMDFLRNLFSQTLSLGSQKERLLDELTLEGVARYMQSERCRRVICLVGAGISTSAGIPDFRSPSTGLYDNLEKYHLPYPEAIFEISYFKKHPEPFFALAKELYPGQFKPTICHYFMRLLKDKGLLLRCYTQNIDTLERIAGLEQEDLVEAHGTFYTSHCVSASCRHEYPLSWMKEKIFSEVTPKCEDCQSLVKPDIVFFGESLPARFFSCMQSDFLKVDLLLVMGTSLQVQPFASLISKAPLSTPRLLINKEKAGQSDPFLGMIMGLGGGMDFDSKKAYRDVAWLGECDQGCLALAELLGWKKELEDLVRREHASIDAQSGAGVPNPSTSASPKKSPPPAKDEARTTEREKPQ
Property: IC50 (µM)
Numbers only; they are read as µM.

Exam item: Query IC50 on NAD-dependent protein deacetylase sirtuin-2 (Homo sapiens, UniProt Q8IXJ6) for `NC(=O)c1ccc[n+]([C@@H]2O[C@H](COP(=O)(O)OP(=O)(O)OC[C@H]3O[C@@H](n4cnc5c(N)ncnc54)[C@H](O)[C@@H]3O)[C@@H](O)[C@H]2N)c1`
Marked response: 151

Exam item: Query IC50 on NAD-dependent protein deacetylase sirtuin-2 (Homo sapiens, UniProt Q8IXJ6) for `NC(=O)c1ccc[n+]([C@H]2O[C@H](COP(=O)(O)OP(=O)(O)OC[C@H]3O[C@@H](n4cnc5c(N)ncnc54)[C@H](O)[C@@H]3O)[C@@H](O)[C@H]2N)c1`
Marked response: 118

====

Measured target: NAD-dependent protein deacetylase sirtuin-1 (Homo sapiens)
Sequence (Q96EB6 whole entry): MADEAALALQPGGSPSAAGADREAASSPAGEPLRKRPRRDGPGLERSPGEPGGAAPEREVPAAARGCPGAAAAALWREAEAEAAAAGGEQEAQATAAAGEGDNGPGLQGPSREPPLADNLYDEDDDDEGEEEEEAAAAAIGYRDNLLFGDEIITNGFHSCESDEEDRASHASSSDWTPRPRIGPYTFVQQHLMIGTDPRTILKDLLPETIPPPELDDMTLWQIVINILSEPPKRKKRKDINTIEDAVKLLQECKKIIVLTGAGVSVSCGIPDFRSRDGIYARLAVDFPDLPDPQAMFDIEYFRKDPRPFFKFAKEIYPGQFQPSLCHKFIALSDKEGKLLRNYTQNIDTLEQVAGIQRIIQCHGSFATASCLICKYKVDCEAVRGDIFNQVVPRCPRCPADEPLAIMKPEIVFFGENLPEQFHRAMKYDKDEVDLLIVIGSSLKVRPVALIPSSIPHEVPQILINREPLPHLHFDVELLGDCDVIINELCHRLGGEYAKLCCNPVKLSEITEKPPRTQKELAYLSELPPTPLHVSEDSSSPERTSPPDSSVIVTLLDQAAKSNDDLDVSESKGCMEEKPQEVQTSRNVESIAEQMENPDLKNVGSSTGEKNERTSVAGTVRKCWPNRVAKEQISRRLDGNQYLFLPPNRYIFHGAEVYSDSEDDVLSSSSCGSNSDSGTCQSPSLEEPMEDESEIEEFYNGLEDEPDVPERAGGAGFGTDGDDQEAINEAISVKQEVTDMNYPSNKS
Property: pIC50
By convention, pIC50 is the negative base-10 log of a molar concentration.

Exam item: Query pIC50 on NAD-dependent protein deacetylase sirtuin-1 (Homo sapiens) for `NC(=O)c1ccc[n+]([C@@H]2O[C@H](COP(=O)(O)OP(=O)(O)OC[C@H]3O[C@@H](n4cnc5c(N)ncnc54)[C@H](O)[C@@H]3O)[C@@H](O)[C@@H]2N)c1`
Marked response: 3.75

====

Experimental protocol: Chemical stability of the compound in sirtuin assay buffer at pH 8.0 assessed as nicotinamide cleavage measured every 60 mins for 4 hrs by HPLC analysis
Type: physicochemical
Assay context: read-out: Activity
Property: degraded at 4 h (%)
Numbers only; they are read as %.

Exam item: Given the compound `NC(=O)c1ccc[n+]([C@H]2O[C@H](COP(=O)(O)OP(=O)(O)OC[C@H]3O[C@@H](n4cnc5c(N)ncnc54)[C@H](O)[C@@H]3O)[C@@H](O)[C@H]2N)c1` , what is its reported degraded at 4 h?
Marked response: 4.1
